Cited source: patent US11198713B2

Molecular target: full-length beta-catenin (Axin site) (Homo sapiens, UniProt P35222)
Construct: 15 nM full-length beta-catenin, 20 nM FITC labeled peptide in buffer
Sequence (P35222 whole entry): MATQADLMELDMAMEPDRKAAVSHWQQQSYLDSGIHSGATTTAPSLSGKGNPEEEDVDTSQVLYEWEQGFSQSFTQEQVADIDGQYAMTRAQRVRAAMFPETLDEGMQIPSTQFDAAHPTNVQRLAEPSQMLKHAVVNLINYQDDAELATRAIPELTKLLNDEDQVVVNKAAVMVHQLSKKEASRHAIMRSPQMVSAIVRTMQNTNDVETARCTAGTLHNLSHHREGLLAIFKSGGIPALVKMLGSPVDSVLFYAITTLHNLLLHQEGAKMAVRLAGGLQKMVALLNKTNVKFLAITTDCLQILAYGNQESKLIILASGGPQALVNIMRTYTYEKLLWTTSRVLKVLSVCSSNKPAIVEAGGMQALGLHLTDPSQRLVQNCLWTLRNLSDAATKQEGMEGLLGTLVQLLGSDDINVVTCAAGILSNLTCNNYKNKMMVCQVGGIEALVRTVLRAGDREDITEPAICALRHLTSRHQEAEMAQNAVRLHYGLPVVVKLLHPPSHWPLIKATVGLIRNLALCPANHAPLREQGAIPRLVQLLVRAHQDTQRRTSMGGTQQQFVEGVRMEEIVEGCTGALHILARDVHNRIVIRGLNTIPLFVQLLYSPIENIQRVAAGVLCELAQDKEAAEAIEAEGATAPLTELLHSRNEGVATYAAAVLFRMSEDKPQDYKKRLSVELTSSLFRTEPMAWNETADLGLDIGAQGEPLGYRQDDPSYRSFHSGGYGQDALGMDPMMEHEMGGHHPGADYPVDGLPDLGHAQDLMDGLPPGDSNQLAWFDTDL
Experiment: Competition fluorescence polarization assay (Axin site probe)
Format: binding
Conditions: competition fluorescence polarization, Table 2; read-out: in vitro FP EC50
pEC50: −log10 of the molar value. Numbered stars: 1 amine (or outer) side, 2 acyl side, 3 side chain; on linkers, the order of the positions; unused ones are H or OH. Bridge positions count the residues as written; N and C are the ends. Square brackets hold non-standard residues; d marks the D form. Peptide text beside a SMILES is read from it. dαMeDab(Me) = CN(CC[C@@](C)(N[*:1])C(=O)[*:2])[*:3]; αMeDab(Me) = CN(CC[C@](C)(N[*:1])C(=O)[*:2])[*:3]; X6 = CN(CC=[*:3])CC[C@](C)(N[*:1])C(=O)[*:2]; X7 = C[C@](CCCCC=[*:3])(N[*:1])C(=O)[*:2]; X2 = O=C(OCC=CCOC(=O)[*:2])[*:1]
property.name: pEC50

The following compounds have reported results that may help.
compound: CC[C@H](C)[C@@H]1NC(=O)[C@H](Cc2c[nH]cn2)NC(=O)[C@H](C)NC(=O)[C@H](CC(=O)O)NC(=O)[C@H](CC(C)C)NC(=O)[C@H]([C@@H](C)CC)NC(=O)[C@](C)(NC(=O)[C@H](C)NC(C)=O)CCCCC=CCN(C)CC[C@@](C)(C(=O)N[C@@H](CCCNC(=N)N)C(=O)N[C@H](C(=O)N[C@@H](Cc2c[nH]c3ccccc23)C(N)=O)C(C)C)NC1=O [FP0502a, Ac-A-R6-I-L-D-A-H-I-MF-R-V-W-NH2] (Ac-A[X7]ILDAHI[X6]RVW-NH2; staple 2-9)
observed: 5.30 to 6.30

compound: CC[C@H](C)[C@@H]1NC(=O)[C@H](Cc2c[nH]cn2)NC(=O)[C@H](C)NC(=O)[C@H](CC(=O)O)NC(=O)[C@H](CC(C)C)NC(=O)[C@H]([C@@H](C)CC)NC(=O)[C@](C)(NC(=O)[C@H](C)NC(C)=O)CCN(C)C(=O)OCC=CCOC(=O)N(C)CC[C@@](C)(C(=O)N[C@@H](CCCNC(=N)N)C(=O)N[C@H](C(=O)N[C@@H](Cc2c[nH]c3ccccc23)C(N)=O)C(C)C)NC1=O [FP0594c, Ac-A-MG-I-L-D-A-H-I-MF-R-V-W-NH2] (Ac-A[dαMeDab(Me)]ILDAHI[αMeDab(Me)]RVW-NH2; linker 2-9 via X2)
observed: 6.30 to 7.00

compound: CC[C@H](C)[C@@H]1NC(=O)[C@H](Cc2ccccn2)NC(=O)[C@H](C)NC(=O)[C@H](CC(=O)O)NC(=O)[C@H](CC(C)C)NC(=O)[C@H]([C@@H](C)CC)NC(=O)[C@](C)(NC(=O)[C@H](C)NC(C)=O)CCCCCCC=CCOC(=O)N2CC[C@@](C(=O)N[C@@H](CO)C(=O)N[C@H](C(=O)N[C@@H](Cc3c[nH]c4ccccc34)C(N)=O)C(C)C)(C2)NC1=O (single isomer, unassigned) [FP0560c Isomer 2, Ac-A-R8-I-L-D-A-2pyr-I-MB-S-V-W-NH2]
observed: < 5.30

Req: # query: pEC50 of entry CC[C@H](C)[C@@H]1NC(=O)[C@@](C)(NC(=O)[C@H](CCC(N)=O)NC(=O)[C@@H]2CCCN2C(C)=O)CCCC=CCOC(=O)N2CC(C(=O)N[C@@H](Cc3c[nH]cn3)C(=O)N[C@H](C(=O)N[C@@H](CCCNC(=N)N)C(=O)N[C@@H](CCCNC(=N)N)C(=O)N[C@H](C(=O)N[C@@H](Cc3c[nH]c4ccccc34)C(=O)N[C@@H](CCCNC(=N)N)C(N)=O)C(C)C)C(C)C)(C2)NC(=O)[C@H](CC(=O)O)NC(=O)[C@H](CC(C)C)NC1=O (single isomer, unassigned) [FP0734c, Ac-P-Q-S5-I-L-D-MA-H-V-R-R-V-W-R-NH2]
Resp: < 5.30
